Task for the reader: assign each of the following variants its reported protein stability index.
B1: ALKBH7 (parent)
chain: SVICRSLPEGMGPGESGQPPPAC

Variants of: B1
Assay: protein stability index of a GFP-peptide fusion (GPS, HEK-293T) (PSI 1-6); higher = more stable;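 further: lentivirally expressed fusions sorted by FACS into six bins by GFP to DsRed ratio, PSI derived from sequencing read proportions per bin multiplied by bin number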
Conditions: c terminus: native

Can you give me protein stability index for all of these, one by one?
1. P13G
2. G14N
3. P21N
4. P21F
5. L7Y
6. C4Q
7. R5T
8. P8N

1.58
2.42
4.05
2.69
1.67
2.83
2.1
2.48
